# Test system: Lung carcinoma HBT182
# Procedure details: growth inhibition of tumour cell lines
# Condition set: read-out: half maximum growth inhibitory concentration (IC50), Δ,Δ-enantiomers of (I)-(IV), Δ-enantiomer of (V)
Test readout: IC50 (µM)
Write down the numeric answer in µM and omit the unit.

[ask] Looking for the measured IC50 of [Cl-].[Cl-].[Ru+2].c1ccc2nc3c4cccnc4c4ncccc4c3nc2c1.c1cnc2c(c1)ccc1cccnc12.c1cnc2c(c1)ccc1cccnc12 [(V), reference compound] , can you help?
[reply] 38
